- measured-target: Methionine aminopeptidase 2 (Homo sapiens, UniProt P50579)
- Sequence (P50579 whole entry): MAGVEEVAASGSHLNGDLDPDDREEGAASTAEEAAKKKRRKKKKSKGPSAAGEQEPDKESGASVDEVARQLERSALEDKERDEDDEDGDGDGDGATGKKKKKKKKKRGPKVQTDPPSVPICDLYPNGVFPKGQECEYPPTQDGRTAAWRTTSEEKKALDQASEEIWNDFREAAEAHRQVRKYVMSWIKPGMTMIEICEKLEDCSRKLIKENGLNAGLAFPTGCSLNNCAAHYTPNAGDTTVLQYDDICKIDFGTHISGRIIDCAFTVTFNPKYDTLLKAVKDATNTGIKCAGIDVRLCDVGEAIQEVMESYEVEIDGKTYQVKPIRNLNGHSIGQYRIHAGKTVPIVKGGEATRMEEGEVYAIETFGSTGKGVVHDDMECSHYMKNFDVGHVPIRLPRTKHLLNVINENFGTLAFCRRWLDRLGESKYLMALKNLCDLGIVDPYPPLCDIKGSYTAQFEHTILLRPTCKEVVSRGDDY
pIC50: −log10 of the molar value.
t means recorded pIC50 is 6 or above; f means it is below 6.

{"compound": "COc1ccc(Cn2nnc3c2[C@]2(CC[C@H]3NC(=O)OCC(C)C)CO2)cc1", "label-class": "t"}
{"compound": "CC(C)NC(=O)O[C@H]1CC[C@]2(CO2)c2c1nnn2Cc1ccccc1 (relative stereo)", "label-class": "f"}
{"compound": "O=C1CCC2(CO2)c2c1nnn2Cc1ccc(C(F)(F)F)cc1 (stereo not given)", "label-class": "t"}
{"compound": "O=C1CCC2(CO2)c2c1nnn2Cc1ccc(Cl)cc1 (stereo not given)", "label-class": "t"}
{"compound": "Cc1ccccc1Cn1nnc2c1C1(CCC2=O)CO1 (stereo not given)", "label-class": "f"}
{"compound": "O=C1CCC2(CO2)c2c1nnn2Cc1ccccc1 (stereo not given)", "label-class": "f"}
{"compound": "C=C1CCC(OC(=O)c2ccccc2)c2nnn(Cc3ccc(OC)cc3)c21 (stereo not given)", "label-class": "f"}
{"compound": "O=C(O[C@H]1CC[C@]2(CO2)c2c1nnn2Cc1ccccc1)c1ccccc1 (relative stereo)", "label-class": "f"}

These measurements were taken from BindingDB's records for doi:10.1021/acschembio.5b00755.
